// provenance: the supplement of paper PMC9233669

- Tested on: biotinyl-Val-oxazolone
- procedureSummary: self-aminoacylation, catalytic enhancement (BVO) (fold over background); higher = more active; k-Seq, kA / k0A0; sequences stand for … in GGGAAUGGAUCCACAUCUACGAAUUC…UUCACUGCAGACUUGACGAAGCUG
Fewer inactive variants are shown than the library holds.
Label Not met if self-aminoacylation falls below 2; label Met in every other case.

- AUUCAGCUAGGUCAUCGGGUG [Fam2.2 aminoacylation ribozyme variant]: Met
- CAACACUUCAAGCAAUCGGUU [Fam1B.1 aminoacylation ribozyme variant]: Not met
- AAGUUUGAUAAUAGUCUCAAG [Fam3.1 aminoacylation ribozyme variant]: Not met
- AUUCACCUAGCUCUUCGGGUG [Fam2.2 aminoacylation ribozyme variant]: Met
- AUUCCCUUAGGUCAUCGGGUG [Fam2.2 aminoacylation ribozyme variant]: Met
- AUUACCCUCGUUAUCGAGUGA [Fam2.1 aminoacylation ribozyme variant]: Met
- AUUACGCUGUUCAUCGAGUGA [Fam2.1 aminoacylation ribozyme variant]: Met
- AUUAGCCUUGUCAUCGAGUGA [Fam2.1 aminoacylation ribozyme variant]: Met
- AAGUGUCCUAAUAGUCGCAAG [Fam3.1 aminoacylation ribozyme variant]: Not met
- AUUCGCCUAGGUCAUGGGGUG [Fam2.2 aminoacylation ribozyme variant]: Met
- CCUCACUUCAAGCAAUCGAUC [Fam1B.1 aminoacylation ribozyme variant]: Not met
- AAGUUUGCUAAUAGUCGCAAU [Fam3.1 aminoacylation ribozyme variant]: Not met
- AUUACCGUGGUCAUCGAGAGA [Fam2.1 aminoacylation ribozyme variant]: Not met
- CAACUUCAAACAAUCGGACUG [Fam1A.1 aminoacylation ribozyme variant]: Not met
- GCACACUUCAAGCAAUCGGUG [Fam1B.1 aminoacylation ribozyme variant]: Met
- AUUACACUGGUCAUCUAGUGA [Fam2.1 aminoacylation ribozyme variant]: Met
- AUUCACCUAGGCCUUCGGGUG [Fam2.2 aminoacylation ribozyme variant]: Met
- AAGUUUGGUAAUAGUCGCAAU [Fam3.1 aminoacylation ribozyme variant]: Not met
- UAGUUUGCUAAGAGUCGCAAG [Fam3.1 aminoacylation ribozyme variant]: Not met
- CCACAAUUCAAGCAAUCGAUC [Fam1B.1 aminoacylation ribozyme variant]: Not met

---

Quick list: self-aminoacylation per entry.
- Tested on: biotinyl-Leu-oxazolone
- procedureSummary: self-aminoacylation, catalytic enhancement (BLO) (fold over background); higher = more active; k-Seq, kA / k0A0; sequences stand for … in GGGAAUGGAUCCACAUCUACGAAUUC…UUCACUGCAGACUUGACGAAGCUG
This sample holds only a part of the variants without activity.
quantityName: self-aminoacylation

- AAGUUUCCUAAUAGUCCCAAG [Fam3.1 aminoacylation ribozyme variant]: 1
- AUCGACCUAGGUCAUCGGGUG [Fam2.2 aminoacylation ribozyme variant]: 6.35
- CUACUUCAACCAAUAGGUCUG [Fam1A.1 aminoacylation ribozyme variant]: 0.743
- CCACAGUUCAAGCACUCGGUC [Fam1B.1 aminoacylation ribozyme variant]: 1.73
- AAGUUUGCUAAUAGUUGCACG [Fam3.1 aminoacylation ribozyme variant]: 1.1
- UUACUUCACACAAUCGGUCUG [Fam1A.1 aminoacylation ribozyme variant]: 1.17
- CUACUUCAGACAAUCGGUCCG [Fam1A.1 aminoacylation ribozyme variant]: 1.01
- AUUCACCAAGGUUAUCGGGUG [Fam2.2 aminoacylation ribozyme variant]: 8.94
- AUACACCUAGGUCAUCGGGUU [Fam2.2 aminoacylation ribozyme variant]: 2.79
- CCACAUUUUAAGCAAUCGGUC [Fam1B.1 aminoacylation ribozyme variant]: 1.29
- CUACUUCAAAAAAUCGGUCCG [Fam1A.1 aminoacylation ribozyme variant]: 0.761
- AUUACCCUGGUCAUCGAGUCG [Fam2.1 aminoacylation ribozyme variant]: 0.794
- UUUACCCUGGUCAUCGCGUGA [Fam2.1 aminoacylation ribozyme variant]: 16.9
- CUACUUCAAACAAUCGGACAG [Fam1A.1 aminoacylation ribozyme variant]: 0.672
- AUUCACCUAGUUCAUCCGGUG [Fam2.2 aminoacylation ribozyme variant]: 3.89
- CUACUUCAAACAAUGGGUCUC [Fam1A.1 aminoacylation ribozyme variant]: 0.569
- CUACUUCAACCAAUCGGUCUC [Fam1A.1 aminoacylation ribozyme variant]: 1.19
